Literature log10 of IC50 values, system: Tyrosine-protein phosphatase non-receptor type 2 (Homo sapiens, UniProt P17706).
# system name: Tyrosine-protein phosphatase non-receptor type 2 (Homo sapiens, UniProt P17706)
# Sequence (P17706 whole entry): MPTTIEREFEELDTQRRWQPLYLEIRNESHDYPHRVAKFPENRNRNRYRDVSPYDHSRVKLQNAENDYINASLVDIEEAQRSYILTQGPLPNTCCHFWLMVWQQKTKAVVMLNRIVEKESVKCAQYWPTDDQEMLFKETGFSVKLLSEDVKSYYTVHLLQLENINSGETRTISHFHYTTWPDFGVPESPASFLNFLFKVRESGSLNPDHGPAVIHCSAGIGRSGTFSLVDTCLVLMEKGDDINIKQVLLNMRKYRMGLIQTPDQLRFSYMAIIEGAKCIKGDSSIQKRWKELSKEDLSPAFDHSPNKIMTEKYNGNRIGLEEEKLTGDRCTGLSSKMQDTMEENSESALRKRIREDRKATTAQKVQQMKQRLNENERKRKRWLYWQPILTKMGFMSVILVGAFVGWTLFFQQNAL
property measured: log10 of IC50 (log10 of the value in µM)

compound="COc1ccccc1CC(NC(=O)CCCC[C@]12CCC(C)(C)C[C@H]1C1=CC[C@@H]3[C@@]4(C)CC[C@H](O)C(C)(C)[C@@H]4CC[C@@]3(C)[C@]1(C)CC2)C(=O)O (stereo partly drawn)" property_measured="log10 of IC50" experimental_result=-0.35
compound=CC1(C)CC[C@]2(C(=O)O)CC[C@]3(C)C(=CC[C@@H]4[C@@]5(C)Cc6nc7ccccc7nc6C(C)(C)[C@@H]5CC[C@]43C)[C@@H]2C1 property_measured="log10 of IC50" experimental_result=0.77
compound="O=C(Cc1ccc(Cl)cc1)NC(Cc1ccc2cc(OCc3ccccc3F)ccc2c1)C(=O)O (racemic)" property_measured="log10 of IC50" experimental_result=1.11
compound="O=C1CC(c2ccc(CC(NS(=O)(=O)c3cccc(C(F)(F)F)c3)c3nc4ccccc4[nH]3)cc2)S(=O)(=O)N1 (stereo not drawn)" property_measured="log10 of IC50" experimental_result=-1.37
compound=C/C(=C/C(C)=C/c1csc([C@H](Cc2ccc(OCc3ccccc3)cc2)NC(=O)Cc2c[nH]c3ccccc23)n1)C(=O)OCC(=O)O property_measured="log10 of IC50" experimental_result=1.00
compound=O=C(O)COc1c(O)cc(-c2cccc(C(F)(F)F)c2)cc1OCc1ccc(C(F)(F)F)cc1 property_measured="log10 of IC50" experimental_result=1.81
compound=CCOP(=O)(OCC)[C@H](Nc1ccc(Cl)cc1)c1ccccc1O property_measured="log10 of IC50" experimental_result=2.80
compound=O=C(OC1CSSC1)c1ccc(CCCCCCOC(=O)c2cc(Br)ccc2Br)cc1 property_measured="log10 of IC50" experimental_result=1.24

* * *

Literature pIC50 values, system: Tyrosine-protein phosphatase non-receptor type 2 (Homo sapiens).
pIC50: −log10 of the molar value.
property measured: pIC50

molecule=O=C(O)[C@@H](Cc1ccccc1)N1C(=O)/C(=C/c2cn(-c3ccccc3)nc2-c2ccc(Cl)cc2Cl)SC1=S qualifying_sign== experimental_result=4.90
molecule=CC1(C)CC[C@]2(C(=O)O)CC[C@]3(C)C(=CC[C@@H]4[C@@]5(C)Cc6cnc(N)nc6C(C)(C)[C@@H]5CC[C@]43C)[C@@H]2C1 qualifying_sign== experimental_result=5.26
molecule="CCOP(=O)(O)C(N[C@@H](Cc1ccccc1)C(=O)O)c1ccccc1O (some centres not stated)" qualifying_sign=< experimental_result=2.00
molecule=COc1ccc(/C=C2\S/C(=N\c3ccccc3)N(Cc3ccc(C(=O)O)cc3)C2=O)cc1OCCc1ccccc1 qualifying_sign== experimental_result=5.37
molecule="Cc1cc(CC(NS(=O)(=O)c2cccc(F)c2)C2=NC[C@@H](CCCOc3cccc(S(C)(=O)=O)c3)N2)ccc1C1CC(=O)NS1(=O)=O (some centres not stated)" qualifying_sign== experimental_result=7.08
molecule=O=C(OCCCCC#Cc1ccc(C(=O)OC2CSSC2)cc1)c1cccc([N+](=O)[O-])c1 qualifying_sign== experimental_result=4.89
molecule=CCOC(=O)COC(=O)/C(C)=C\C(C)=C\c1csc([C@H](Cc2ccc(OCc3ccccc3)cc2)NC(=O)Cc2c[nH]c3ccccc23)n1 qualifying_sign== experimental_result=4.85
